Task for the reader: assign each of the following molecules its reported pIC50.
System: Prostaglandin G/H synthase 2 (Homo sapiens, UniProt P35354)
Sequence (P35354 whole entry): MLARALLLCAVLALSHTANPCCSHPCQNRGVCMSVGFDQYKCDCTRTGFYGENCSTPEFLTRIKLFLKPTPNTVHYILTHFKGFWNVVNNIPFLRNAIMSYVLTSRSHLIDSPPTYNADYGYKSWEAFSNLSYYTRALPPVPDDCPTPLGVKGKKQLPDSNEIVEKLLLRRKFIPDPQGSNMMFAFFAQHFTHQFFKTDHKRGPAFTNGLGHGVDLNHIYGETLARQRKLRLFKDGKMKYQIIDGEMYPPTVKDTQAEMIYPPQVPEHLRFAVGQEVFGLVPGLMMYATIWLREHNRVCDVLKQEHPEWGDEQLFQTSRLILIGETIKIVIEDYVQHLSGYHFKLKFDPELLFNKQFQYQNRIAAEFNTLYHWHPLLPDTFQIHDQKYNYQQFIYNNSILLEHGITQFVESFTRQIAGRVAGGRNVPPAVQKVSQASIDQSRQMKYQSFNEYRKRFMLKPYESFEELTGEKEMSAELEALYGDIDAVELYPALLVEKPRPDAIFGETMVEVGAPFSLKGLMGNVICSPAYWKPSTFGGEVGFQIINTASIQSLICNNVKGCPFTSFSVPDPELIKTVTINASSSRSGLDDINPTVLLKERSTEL
pIC50: −log10 of the molar value.

Entry under review: `CCC(=C(c1ccccc1)c1ccccc1)c1ccc(S(C)(=O)=O)cc1` . Reported pIC50?
5.90

Requested read-out: pIC50. Entry: `CS(=O)(=O)c1ccc(/C=C(/C(=O)O)c2cccc(-c3ccc(F)cc3F)c2)cc1`
< 4.00

Please give the measured pIC50 for this molecule: `CS(=O)(=O)Nc1ccc(/C(=C(\c2ccccc2)C2CCCCC2)c2ccccc2)cc1`
< 4.00

Fill blank: measured pIC50 of the molecule `CCCCC(=C(c1ccccc1)c1cc(C(C)(C)C)c(C(C)=O)c(C(C)(C)C)c1)c1ccc(S(C)(=O)=O)cc1` is ____.
< 4.00

Recorded values, source ChEMBL document CHEMBL3045408.
